# EXPERIMENTAL_SYSTEM: human AMPK α1β1γ1 enzyme (Homo sapiens, UniProt Q13131+Q9Y478)
# Construct: purchased Carna Biosciences, Inc
# Sequence (Q13131 10-559 limits assumed): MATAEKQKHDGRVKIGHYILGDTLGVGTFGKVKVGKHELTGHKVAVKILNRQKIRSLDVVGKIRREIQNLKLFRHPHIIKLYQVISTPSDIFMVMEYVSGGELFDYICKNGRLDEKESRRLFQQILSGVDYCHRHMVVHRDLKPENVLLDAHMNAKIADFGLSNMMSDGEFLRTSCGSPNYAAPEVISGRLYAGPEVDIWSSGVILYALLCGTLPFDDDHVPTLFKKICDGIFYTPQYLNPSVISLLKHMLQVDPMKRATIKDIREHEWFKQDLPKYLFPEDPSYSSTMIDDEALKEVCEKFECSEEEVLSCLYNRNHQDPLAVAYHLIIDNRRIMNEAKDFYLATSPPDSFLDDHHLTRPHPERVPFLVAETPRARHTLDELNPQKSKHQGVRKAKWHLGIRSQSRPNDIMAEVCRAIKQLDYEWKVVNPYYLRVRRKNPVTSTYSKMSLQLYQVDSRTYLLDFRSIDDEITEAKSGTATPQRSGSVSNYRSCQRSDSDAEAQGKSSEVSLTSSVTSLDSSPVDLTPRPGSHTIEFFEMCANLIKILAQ
# Sequence (Q9Y478 whole entry): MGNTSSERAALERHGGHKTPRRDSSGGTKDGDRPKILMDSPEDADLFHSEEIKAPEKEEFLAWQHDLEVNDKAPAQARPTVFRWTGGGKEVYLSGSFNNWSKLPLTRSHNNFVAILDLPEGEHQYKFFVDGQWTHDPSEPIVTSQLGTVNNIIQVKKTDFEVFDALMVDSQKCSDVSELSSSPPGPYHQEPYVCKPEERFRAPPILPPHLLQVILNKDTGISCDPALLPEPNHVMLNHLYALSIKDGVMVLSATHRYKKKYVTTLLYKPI
# Sequence (P54619 whole entry partner): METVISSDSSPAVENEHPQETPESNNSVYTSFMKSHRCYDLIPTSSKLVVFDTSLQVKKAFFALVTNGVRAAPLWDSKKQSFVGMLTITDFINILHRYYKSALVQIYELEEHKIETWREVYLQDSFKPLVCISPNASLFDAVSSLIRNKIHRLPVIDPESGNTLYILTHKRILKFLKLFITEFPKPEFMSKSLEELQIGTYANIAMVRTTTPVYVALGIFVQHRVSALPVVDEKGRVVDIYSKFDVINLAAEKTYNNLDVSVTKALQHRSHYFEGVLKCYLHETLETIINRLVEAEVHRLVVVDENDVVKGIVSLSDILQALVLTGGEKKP
# METHOD_NOTES: Evaluation of AMPK activator, Test Example 1 (mobility-shift kinase assay, FL-Peptide 7)
# Assay type: biochemical
# EXPERIMENTAL_CONDITIONS: human AMPK α1β1γ1, relative to control (100%); read-out: Emax (maximum rate of increase in activity within the measurement range)
# Method: The obtained liquid was left to stand for 10 minutes. The obtained liquid was allowed to react at 25° C. for 2 hours, and 10 μl of 20 mM EDTA was then added thereto to stop the reaction. To detect phosphorylated fluorescent substrates, the reaction liquid was applied to a measuring device, LabChip EZ Reader II manufactured by Caliper Life Science, Inc., for detecting fluorescence by using differences in mobility due to differences in charge. […]
READOUT_NAME: Emax (%)
Report the figure in % without appending any unit label.

Worked cases, answers included:
Prompt line: Give human AMPK α1β1γ1 enzyme (Homo sapiens, UniProt Q13131+Q9Y478) Emax for CC(=O)NC1CC=C(c2ccc(-c3nc4nc(O[C@H]5CC[C@H](C(C)(C)CO)CC5)[nH]c4cc3Cl)cc2)CC1 (some centres unmarked)
Response line: 277

Prompt line: API: value(readout= Emax, system= human AMPK α1β1γ1 enzyme (Homo sapiens, UniProt Q13131+Q9Y478), query= CC(Sc1nc2nc(-c3ccc(N4CCOCC4)cc3)c(Cl)cc2[nH]1)C(=O)O (centres unmarked) )
Response line: 258

Prompt line: Give Emax (human AMPK α1β1γ1 enzyme (Homo sapiens, UniProt Q13131+Q9Y478)) of the following compound: CC(C#N)Oc1nc2nc(-c3ccc(N4CCOCC4)cc3)c(Cl)cc2[nH]1 (centres unmarked)
Response line: 226

Prompt line: # query: Emax | item O=C(COc1nc2nc(-c3ccc(N4CCOCC4)cc3)c(Cl)cc2[nH]1)N1CCC(F)(F)CC1 | system: human AMPK α1β1γ1 enzyme (Homo sapiens, UniProt Q13131+Q9Y478)
Response line: 284

---
Prompt line: Emax of CC(Cc1nc2nc(-c3ccc(N4CCOCC4)cc3)c(Cl)cc2[nH]1)C(=O)O (centres unmarked) on human AMPK α1β1γ1 enzyme (Homo sapiens, UniProt Q13131+Q9Y478)?
Response line: 228

Prompt line: Tell me reported Emax for Clc1cc2[nH]c(OC3CCOCC3)nc2nc1-c1ccc(N2CCOCC2)cc1 , tested with human AMPK α1β1γ1 enzyme (Homo sapiens, UniProt Q13131+Q9Y478).
Response line: 211

Prompt line: Request: Emax, test system human AMPK α1β1γ1 enzyme (Homo sapiens, UniProt Q13131+Q9Y478), entry O=C(O)CSc1nc2nc(-c3ccc(N4CCOCC4)cc3)c(Cl)cc2[nH]1
Response line: 283

Prompt line: Param readout= Emax; system= human AMPK α1β1γ1 enzyme (Homo sapiens, UniProt Q13131+Q9Y478); entry= CN(C)C(=O)[C@]1(O)CC[C@@H](Oc2nc3nc(-c4ccc(C5=CCC(C(=O)O)CC5)cc4)c(Cl)cc3[nH]2)CC1 (some centres unmarked) ; returns value.
Response line: 201

###

# EXPERIMENTAL_SYSTEM: human AMPK α1β1γ1 enzyme (Homo sapiens, UniProt Q13131+Q9Y478)
# Construct: purchased Carna Biosciences, Inc
# METHOD_NOTES: Evaluation of AMPK activator, Test Example 1 (mobility-shift kinase assay, FL-Peptide 7)
# Assay type: biochemical
# EXPERIMENTAL_CONDITIONS: human AMPK α1β1γ1, 25° C., 2 hours, 0.2 mM ATP final
Label MET when EC150 (compound concentration showing 150% relative to the control (100%)) < 70 nM; otherwise NOT MET.

Look over these answered cases.
Prompt line: Hi there! Is EC150 (compound concentration showing 150% relative to the control (100%)) for CC(C)(C(=O)O)[C@H]1CC[C@H](Oc2nc3nc(-c4ccc(C5=CCN(C(=O)CO)CC5)cc4)c(Cl)cc3[nH]2)CC1 below 70 nM, do you know?
Response line: MET

Prompt line: Below 70 nM on EC150 (compound concentration showing 150% relative to the control (100%))? Entry CC(=O)NC1CC=C(c2ccc(-c3nc4nc(O[C@H]5CC[C@H](C(=O)O)CC5)[nH]c4cc3Cl)cc2)CC1 (some centres unmarked)
Response line: NOT MET

Prompt line: Say whether its EC150 (compound concentration showing 150% relative to the control (100%)) is strictly beneath 70 nM. Entry: CC(C)(C(=O)O)[C@]1(O)CC[C@@H](Oc2nc3nc(-c4ccc(-c5ccccc5)cc4)c(Cl)cc3[nH]2)CC1
Response line: MET

Prompt line: Record CC(Oc1nc2nc(-c3ccc(N4CCOCC4)cc3)c(Cl)cc2[nH]1)c1noc(=O)[nH]1 (centres unmarked) : is its EC150 (compound concentration showing 150% relative to the control (100%)) strictly below 70 nM?
Response line: NOT MET

Prompt line: Is EC150 (compound concentration showing 150% relative to the control (100%)) of CN(C)C(=O)N1CC(Oc2nc3nc(-c4ccc(C5=CCC(C(=O)O)CC5)cc4)c(Cl)cc3[nH]2)C1 (centres unmarked) strictly below 70 nM?
Response line: NOT MET

Prompt line: hey, is EC150 (compound concentration showing 150% relative to the control (100%)) for CN(C)C(=O)N1CC=C(c2ccc(-c3nc4nc(O[C@H]5CC[C@H](C(C)(C)C(=O)O)CC5)[nH]c4cc3Cl)cc2)CC1 lower than 70 nM or not?
Response line: MET

Prompt line: Dear colleague, could you confirm whether EC150 (compound concentration showing 150% relative to the control (100%)) of CC(C)(C(=O)O)[C@H]1CC[C@H](Oc2nc3nc(-c4c(F)cc(N5CCOCC5)cc4F)ccc3[nH]2)CC1 falls below 70 nM? Thanks.
Response line: MET

Prompt line: Please check: EC150 (compound concentration showing 150% relative to the control (100%)) for CC(C#N)Oc1nc2nc(-c3ccc(N4CCOCC4)cc3)c(Cl)cc2[nH]1 (centres unmarked) , strictly under 70 nM or not?
Response line: NOT MET

Prompt line: Would you kindly verify if EC150 (compound concentration showing 150% relative to the control (100%)) of CN(C)C(=O)[C@H]1C[C@@H](Oc2nc3nc(-c4ccc(C5=CCC(C(=O)O)CC5)cc4F)c(Cl)cc3[nH]2)C1 (some centres unmarked) is strictly less than 70 nM?
Response line: MET

Prompt line: Record CC(C)(C(=O)O)[C@]1(O)CC[C@@H](Oc2nc3nc(-c4ccc(N5CCOCC5)cc4)c(Cl)cc3[nH]2)CC1 [Compound I-3-83] : is its EC150 (compound concentration showing 150% relative to the control (100%)) strictly below 70 nM?
Response line: MET

---
Prompt line: Take the molecule CC(Oc1nc2nc(-c3ccc(C4=CCC(C(=O)O)CC4)cc3)c(Cl)cc2[nH]1)C(N)=O (centres unmarked) and say whether its EC150 (compound concentration showing 150% relative to the control (100%)) is less than 70 nM.
Response line: NOT MET

Prompt line: Determine if CC(Oc1nc2nc(-c3ccc(N4CCOCC4)cc3)c(Cl)cc2[nH]1)[C@H]1CC[C@H](C(=O)O)CC1 (some centres unmarked) shows EC150 (compound concentration showing 150% relative to the control (100%)) strictly lower than 70 nM.
Response line: MET

Prompt line: I wonder whether CCC(Oc1nc2nc(-c3ccc(N4CCOCC4)cc3)c(Cl)cc2[nH]1)C(=O)O (centres unmarked) has EC150 (compound concentration showing 150% relative to the control (100%)) below 70 nM. Can you tell?
Response line: MET

###

# EXPERIMENTAL_SYSTEM: human AMPK α1β1γ1 enzyme (Homo sapiens, UniProt Q13131+Q9Y478)
# Construct: purchased Carna Biosciences, Inc
# METHOD_NOTES: Evaluation of AMPK activator, Test Example 1 (mobility-shift kinase assay, FL-Peptide 7)
# Assay type: biochemical
# EXPERIMENTAL_CONDITIONS: human AMPK α1β1γ1, 25° C., 2 hours, 0.2 mM ATP final
I'd appreciate it if you marked entries YES when EC150 (compound concentration showing 150% relative to the control (100%)) is lower than 50 nM and NO when it is not.

Prompt line: Hello, is EC150 (compound concentration showing 150% relative to the control (100%)) of the following compound strictly smaller than 50 nM? CC(C)C(Oc1nc2nc(-c3ccc(N4CCOCC4)cc3)c(Cl)cc2[nH]1)C(=O)O (centres unmarked) [Compound I-3-27]
Response line: NO

Others:
Prompt line: Identify whether the compound CCC(Oc1nc2nc(-c3ccc(C4=CCC(NC(C)=O)CC4)cc3)c(Cl)cc2[nH]1)C(N)=O (centres unmarked) [Compound I-3-50] records EC150 (compound concentration showing 150% relative to the control (100%)) below 50 nM.
Response line: NO

Prompt line: Is the reported EC150 (compound concentration showing 150% relative to the control (100%)) for CC(=O)N1CC=C(c2ccc(-c3nc4nc(OC5CCC(C(C)(C)C(=O)O)CC5)[nH]c4cc3Cl)cc2)CC1 (centres unmarked) [Compound I-3-39] strictly below 50 nM?
Response line: YES
